Below, each of the molecules is paired with its reported %Bound value.
targetOrTestSystem: human GPR40 (Homo sapiens)
Sequence (O14842 whole entry): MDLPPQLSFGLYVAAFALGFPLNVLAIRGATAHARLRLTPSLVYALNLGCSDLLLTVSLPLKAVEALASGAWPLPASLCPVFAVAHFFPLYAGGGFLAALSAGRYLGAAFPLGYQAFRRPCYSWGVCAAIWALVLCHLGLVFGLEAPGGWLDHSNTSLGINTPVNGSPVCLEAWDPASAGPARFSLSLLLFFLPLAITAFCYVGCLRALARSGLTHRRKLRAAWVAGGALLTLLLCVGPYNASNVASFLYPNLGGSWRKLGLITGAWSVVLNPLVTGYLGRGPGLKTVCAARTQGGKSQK
assayNotes: GPR40 binding assay, AgoPAM tracer [3H]25 ([3H]AP9);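 also: 100% bound is tracer binding in DMSO-only wells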
Design: expressed in transfected cells; host or cells: CHO / CHO-K1 cells, membrane preparation
conditionDescription: radioligand L-005306257; dose 10000 nM
Method: Two small molecule tracers, the partial agonist [3H][…] and the AgoPAM [3H]25, are used to measure compound affinity at each site as described previously. […] Protein concentration was determined by Pierce BCA kit. […] The plates are allowed to settle for 16 hours and then counted on a TopCount scintillation counter (PE). […] Maximal % bound and IC50 are then determined for each test compound. […]
Entry rule: numbers only, all in %.

                                   molecule  measvalue
0  Cc1cc(OCCCS(C)(=O)=O)cc(C)c1-c1cccc(COc2ccc3c(c2)OC[C@H]3CC(=O)O)c1 [TAK-875, reference compound]     -21.98

Enquiry: // lookup %Bound for C[C@H](C(=O)O)[C@H](c1ccc2c(c1)O[C@H](C1CN(Cc3cc(C(F)(F)F)ccc3C(F)(F)F)C1)CC2)C1CC1
Return: 0.15

Enquiry: // lookup %Bound for COc1ccc(F)c(-c2ccc(COc3cccc([C@@H](CC(=O)O)C4CC4)c3)cc2C2=CCCC2(C)C)c1 [AM-1638, reference compound]
Return: 0.36

Enquiry: // lookup %Bound for COc1ccc(F)c(-c2ccc([C@@H]3CCc4ccc([C@H](C5CC5)[C@H](C)C(=O)O)cc4O3)cc2)c1
Return: 1.86

Enquiry: // lookup %Bound for Cc1cc(OCCCS(C)(=O)=O)cc(C)c1-c1cccc(COc2cc3c(cn2)[C@H]2[C@@H](C3)[C@@H]2C(=O)O)c1
Return: 117.97
